src = patent US20120329770A1

Recorded measurements of FIC, one per entry
Tested on: Pseudomonas aeruginosa C-10
Assay: Antimicrobial MIC / checkerboard assay for synergy with meropenem
Assay type: cell-based
Settings: P. aeruginosa C-10; meropenem + compound, checkerboard
quantity-kind: FIC

sample-smiles | quantity-kind | test-value
O=C(Cc1cccs1)N[C@@H]1C(=O)N2C(C(=O)O)=C(CSC(=O)c3ccccc3)CS[C@H]12 | FIC | 0.5625
COc1cccc(CC(=O)N[C@@H]2C(=O)N3C(C(=O)O)=C(CSC(=O)c4ccccc4)CS[C@H]23)c1 | FIC | 1.5
O=C(Cc1ccc(Cl)cc1)N[C@@H]1C(=O)N2C(C(=O)O)=C(CSC(=O)c3ccccc3)CS[C@H]12 | FIC | 1
O=C(Cc1ccc(F)cc1)N[C@@H]1C(=O)N2C(C(=O)O)=C(CSC(=O)c3ccccc3)CS[C@H]12 | FIC | 0.625
